%B/B0 overview
Test system: Antibody to Immunogen VII
Format: binding, sheep
conditions: Cross-reactants at 100 ng/ml; Antibody to Immunogen VII

compound	target_system	%B/B0 / %
COc1ccc(C(=O)c2c(C)n(CCN3CCOCC3)c3ccccc23)cc1 [WIN-48,098 (other name Pravadoline), Pravadoline]	Antibody to Immunogen VII	92.41
CCCCCCC(C)(C)c1cc(O)c2c(c1)OC(C)(C)[C@H]1CC=C(CO)C[C@H]21 [HU-211 (Dexanabinol), Dexanabinol]	Antibody to Immunogen VII	96.78
CCCC(C)n1cc(C(=O)c2cccc3ccccc23)c2ccccc21 (single isomer, unassigned) [JWH-018 N-(1-methylbutyl) isomer]	Antibody to Immunogen VII	67.71
CCCCCn1cc(C(=O)Cc2ccccc2C)c2ccccc21 [JWH-251]	Antibody to Immunogen VII	96.74

###

System: Antibody to Immunogen VII
Type: binding, sheep
conditions: Cross-reactants at 100 ng/ml; Antibody to Immunogen VII
Quick rule for you: %B/B0 at 80% or higher means Y, lower means N.

compound	label_class
O=C(c1ccccc1I)c1cn(CCCCCF)c2ccccc12	N
COc1ccc(C(=O)c2cn(CCCCCO)c3ccccc23)c2ccccc12 [JWH-081 N-(5-hydroxypentyl) metabolite]	Y
CCCCCn1cc(C(=O)c2cccc3ccccc23)c2ccc(OC)cc21	N
CCCCCn1cc(C(=O)c2cccc(OC)c2)c2ccccc21 [RCS-4 3-methoxy isomer]	Y
CCCCn1cc(C(=O)c2cccc3ccccc23)c2cc(O)ccc21 [JWH-073 5-hydroxyindole metabolite]	N
O=C(c1cccc2ccccc12)c1cn(CCCC(O)CF)c2ccccc12 (stereo not drawn) [AM-2201 N-(4-hydroxypentyl) metabolite]	N
CCCC(C)(C)c1ccc2c(c1)OC(C)(C)[C@@H]1CC=C(C)C[C@@H]21	Y
CC(C)CCn1cc(C(=O)c2cccc3ccccc23)c2ccccc21 [JWH 018 N-(3-methylbutyl) isomer (JWH-073 3-methylbutyl homologue), JWH 018 N-(3-methylbutyl) isomer]	N
O=C(c1cccc2ccccc12)c1cn(CCCCCO)c2ccccc12 [JWH-018 N-(5-hydroxypentyl) metabolite]	N
CCCCCn1cc(C(=O)c2c(C)ccc3ccccc23)c2ccccc21 [JWH 122 2-methylnaphthyl isomer]	Y
COc1ccccc1CC(=O)c1cn(CCC2CCCCC2)c2ccccc12 [RCS-8 (SR-18), RCS-8]	Y
CCCCCc1cc(O)c2c(c1)OC(C)(C)c1ccc(C)cc1-2	Y
COc1ccc(C(=O)c2c(C)n(CCN3CCOCC3)c3cc(I)ccc23)cc1	Y
CCCCCn1cc(C(=O)c2cccc3ccccc23)c2ccc(O)cc21 [JWH-018 6-hydroxyindole metabolite]	N
CCCCCn1cc(C(=O)c2ccc(OC)cc2)c2ccccc21	Y

###

Reported values of IC50 for individual entries
Test system: antiserum raised to Immunogen II (Hapten B-BTG)
measurement_description: Competitive ELISA microtiter plate assay (Example 19), antiserum raised to Immunogen II, Hapten A-HRP conjugate as detection reagent
Format: binding, sheep
conditions: Table 1; 40 ng/ml highest concentration tested

molecule	target_system	IC50
CCCCCn1cc(C(=O)c2cccc3ccccc23)c2c(O)cccc21 [JWH-018 4-hydroxyindole metabolite]	antiserum raised to Immunogen II (Hapten B-BTG)	9.16 ng/mL
CCCCCn1cc(C(=O)c2cccc3ccccc23)c2ccccc21	antiserum raised to Immunogen II (Hapten B-BTG)	2.11 ng/mL
O=C(O)CCCCn1cc(C(=O)c2cccc3ccccc23)c2ccccc21 [JWH-018 N-pentanoic acid metabolite]	antiserum raised to Immunogen II (Hapten B-BTG)	5.48 ng/mL
O=C(c1cccc2ccccc12)c1cn(CCCCCO)c2ccccc12 [JWH-018 N-(5-hydroxypentyl) metabolite]	antiserum raised to Immunogen II (Hapten B-BTG)	1.15 ng/mL

Reference source for all entries: patent EP2698385A1
